// reported pIC50 per item
Biological target: Amine oxidase [flavin-containing] B (Homo sapiens, UniProt P27338)
Sequence (P27338 whole entry): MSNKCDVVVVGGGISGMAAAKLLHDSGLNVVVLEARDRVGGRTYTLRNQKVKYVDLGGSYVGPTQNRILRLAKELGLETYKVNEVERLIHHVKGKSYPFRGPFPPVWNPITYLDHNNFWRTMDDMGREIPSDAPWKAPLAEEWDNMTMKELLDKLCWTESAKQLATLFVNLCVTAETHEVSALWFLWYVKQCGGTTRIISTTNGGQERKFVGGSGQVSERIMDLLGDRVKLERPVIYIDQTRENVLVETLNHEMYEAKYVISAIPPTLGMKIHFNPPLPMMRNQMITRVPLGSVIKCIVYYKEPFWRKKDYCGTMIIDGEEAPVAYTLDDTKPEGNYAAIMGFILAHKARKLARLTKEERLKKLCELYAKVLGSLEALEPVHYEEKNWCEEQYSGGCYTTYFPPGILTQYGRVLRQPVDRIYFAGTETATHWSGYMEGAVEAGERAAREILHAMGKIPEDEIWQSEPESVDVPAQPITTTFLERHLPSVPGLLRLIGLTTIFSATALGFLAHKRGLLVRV
Test: Inhibition of human recombinant MAOB expressed in microsomes of baculovirus-infected insect cell using kynuramine as substrate preincubated for 20 mins followed by protein addition measured after 30 mins by fluorescence assay
Scale: negative log10 of molar concentration, which is what pIC50 denotes.

Previously resolved entries follow.
- Cc1c(C)c2ccc(OCC3CCN(Cc4ccc(C#N)cc4)CC3)cc2oc1=O: 6.26
- Cc1c(C)c2ccc(OCC3CCCN(Cc4ccc(S(C)(=O)=O)cc4)C3)cc2oc1=O (racemic): 6.95
- Cc1c(C)c2ccc(OCC3CCCN(Cc4cccc(Cl)c4)C3)cc2oc1=O (racemic): 7.44

# pIC50 lookup, item Cc1c(C)c2ccc(OCC3CCCN(C)C3)cc2oc1=O.Cl (racemic) 6.86

// query pIC50 value for entry Cc1c(C)c2ccc(OCC3CCN(C)CC3)cc2oc1=O 6.53

Given the compound Cc1c(C)c2ccc(OCCCN3CCc4ccccc4C3)cc2oc1=O , what is its reported pIC50? 6.53

###

Recorded pIC50 for the following compounds
Target: Amine oxidase [flavin-containing] B (Homo sapiens)
Assay: Inhibition of human recombinant MAOB expressed in microsomes of baculovirus-infected insect cell using kynuramine as substrate preincubated for 20 mins followed by protein addition measured after 30 mins by fluorescence assay
Quick note: pIC50 values are minus log10 of concentrations in mol/L.

Example cases with answers are listed next.
- Cc1c(C)c2ccc(OCC3CCCN(Cc4cccc(Br)c4)C3)cc2oc1=O (single isomer, unassigned; (-)): 6.71
- Cc1c(C)c2ccc(OCC3CCCN(Cc4ccc(C#N)cc4)C3)cc2oc1=O (racemic): 7.47
- Cc1c(C)c2ccc(OCC3CCN(Cc4ccccc4)CC3)cc2oc1=O.Cl: 6.98
- COc1ccc(CN2CCCC(COc3ccc4c(C)c(C)c(=O)oc4c3)C2)cc1OC (racemic): 7.05
- Cc1c(C)c2ccc(OC3CCN(CC(=O)c4ccccc4)CC3)cc2oc1=O: 6.94

# pIC50 lookup, item Cc1c(C)c2ccc(OC3CCN(CCc4ccccc4)CC3)cc2oc1=O 5.60

Query (compound): Cc1c(C)c2ccc(OC3CCN(Cc4ccccc4)CC3)cc2oc1=O ; field requested: pIC50 6.35

# get_value(readout='pIC50', item= Cc1c(C)c2ccc(OC3CCN(Cc4ccc(Cl)cc4)CC3)cc2oc1=O ) 6.06

Find the recorded pIC50 belonging to Cc1c(C)c2ccc(OCC3CCCN(Cc4cccc(Br)c4)C3)cc2oc1=O (single isomer, unassigned; (+)) and report it. 7.59

Which pIC50 reading was recorded for the compound CCCCN1CCC(Oc2ccc3c(C)c(C)c(=O)oc3c2)CC1 ? 5.85
